methodDescription: Systemic (plasma) exposure after oral and subcutaneous administration to rats
Format: in vivo
experimentalParameters: rat, plasma; male rats, oral, single dose 160 mg/kg; read-out: average maximum plasma concentration (Cmax)
measurementName: Cmax (µg/mL)
Please reply with the bare figure in µg/mL and do not write the unit itself.

Measured Cmax, `CS(=O)(=O)CCC#N` : 560
